# MEASUREMENT DESCRIPTION: GHS categories as the set defines them, by LD50: 1 up to 5, 2 up to 50, 3 up to 300, 4 up to 2000, 5 above 2000 mg/kg
# MEASUREMENT CONTEXT: rat; in vivo; po
Exercise: for every item that follows, state its recorded GHS category.
Enter the number alone.

Field request: GHS category | item: COC(=O)c1ccc(C(=O)OC)c([N+](=O)[O-])c1
5

Next up: CCc1ccc(-n2nnnc2CSCCC(=O)N(CC)CC)cc1
4

Next up: CC(c1ccc2c(c1)Cc1ccccc1-2)S(=O)CC(=O)O (stereo not drawn)
4

Next up: Nc1ccc(C(=O)c2ccc(Cl)cc2)cc1O
5

Next up: CC1CC(OC(=O)COc2ccc(I)cc2)CC(C)(C)C1 (stereo not drawn)
5

Next up: CC(C)(c1ccc(OCCO)cc1)c1ccc(OCCO)cc1
5

Next up: CCCOC(=O)c1ccc(O)cc1
5

Next up: CCO[Si](CC(C)CC(C)(C)C)(OCC)OCC (stereo not drawn)
5

Next up: OCCn1c(C=Cc2nc3ccccc3[nH]2)nc2ccccc21
5

Next up: CCOc1nc2cccc(C(=O)OC(C)OC(=O)OC3CCCCC3)c2n1Cc1ccc(-c2ccccc2-c2nnn[nH]2)cc1 (stereo not drawn)
5

Next up: CC1(C)O[C@@H]2C[C@H]3[C@@H]4CCC5=CC(=O)CC[C@]5(C)[C@@]4(F)[C@@H](O)C[C@]3(C)[C@]2(C(=O)CCl)O1
5

Next up: Nc1nc2c(ncn2COCCO)c(=O)[nH]1
5

Next up: COC[C@H]1CO[C@@](Cn2ccnc2)(c2cc3cc(Cl)cc(Cl)c3o2)O1
4

Next up: CC(C)(C)C(O)/C=C/c1ccc2c(c1)OCO2 (stereo not drawn)
5

Next up: C[S+](C)CC[C@@H](N)C(=O)O (racemic)
5

Next up: CCC/C=C/COC(C)=O
5

Next up: CCCCn1c(C)c(C(=O)NC2CCN(CCc3ccccc3)CC2)c2cc(O)ccc21
5

Next up: CN1CCN(CC(=O)N(C)c2ccc(N)cc2)CC1
5

Next up: CC(=O)OCC(=O)[C@@]1(O)CC[C@H]2[C@@H]3C[C@H](C)C4=CC(=O)C=C[C@]4(C)[C@H]3[C@@H](O)C[C@@]21C
5

Next up: O=[N+]([O-])c1ccc2nc[nH]c2c1
4

Next up: COc1ccc(C2(c3ccc(OC)c(C)c3)NC(=O)NC2=O)cc1 (stereo not drawn)
5

Next up: CCOC(=O)CCNc1ccccn1
5

Next up: CO/C=C(/C(=O)OC)c1ccccc1COc1cccc(C(F)(F)F)n1
5

---

# MEASUREMENT DESCRIPTION: GHS categories as the set defines them, by LD50: 1 up to 5, 2 up to 50, 3 up to 300, 4 up to 2000, 5 above 2000 mg/kg
# MEASUREMENT CONTEXT: rat; in vivo; po
Exercise: for every item that follows, state its recorded GHS category.
Enter the number alone.

Field request: GHS category | item: CCCCC1C=C(C)CC(C)O1 (centres undefined)
5

Next up: O=C(O)[C@H]1O[C@@H](O)[C@@H](O)[C@@H](O)[C@@H]1O
5

Next up: CCCC/C=C/C=C\C=O
5

Next up: CCCCCC1C(=O)CCC1CC(C)=O (centres undefined)
5

Next up: FC(F)(F)N1C(F)(F)C(F)(F)OC(F)(F)C1(F)F
5

Next up: CCCCC(CC)COC(=O)C(C#N)=C(c1ccccc1)c1ccccc1 (centres undefined)
5

Next up: Nc1cc(Cl)nc(C(=O)O)c1Cl
5

Next up: CC(O)C(O)C(=O)C(O)C(O)Oc1cccc2c1C(=O)c1c(O)cc(C(=O)O)cc1C2C1c2cc(C(=O)O)cc(O)c2C(=O)c2c(OC(O)C(O)C(=O)C(O)C(C)O)cccc21 (centres undefined)
5

Next up: CC(=O)OC1CCC2(C)C(CCC3(C)C2C(=O)C=C2C4CC(C)(C(=O)O)CCC4(C)CCC23C)C1(C)C (centres undefined)
5

Next up: NP(N)(=O)Oc1ccccc1
4

Next up: NC(=O)Oc1ccccc1C(=O)Oc1ccc(Cl)cc1Cl
5

Next up: CCCCCCC1CCCC1=O (centres undefined)
5

Next up: O=C(Cl)CCCCCl
4

Next up: CC(=O)C(N=Nc1ccc(C(=O)Nc2ccc(C(N)=O)cc2)cc1)C(=O)Nc1ccc2[nH]c(=O)[nH]c2c1 (centres undefined)
5

Next up: C=COCCOCCOC(=O)C=C
4

Next up: CCCc1nc2ncnn2c(CCC)c1Cc1ccc(-c2ccccc2-c2nn[nH]n2)cc1
4

Next up: COc1cc(OC)nc(NC(=O)Oc2ccccc2)n1
5

Next up: C=CCOc1c(Br)cc(C(C)(C)c2cc(Br)c(OCC=C)c(Br)c2)cc1Br
5

Next up: CCC(C)(O)CCCC(C)C (centres undefined)
5

Next up: C=C(C)C(=O)OCCOC(=O)Oc1ccc(C(C)(C)c2ccc(OC(=O)OCCOC(=O)C(=C)C)cc2)cc1
5

Next up: O=C(Nc1ccc(Cc2ccc(NC(=O)NC3CCCCC3)cc2)cc1)NC1CCCCC1
5

Next up: OCC(O)COC1CCCCC1 (centres undefined)
5

Next up: CCC(Oc1ccc(C(C)(C)CC)cc1C(C)(C)CC)C(=O)O (centres undefined)
5

Next up: CC(C)=CCCC(C)C=O (centres undefined)
5

---

# MEASUREMENT DESCRIPTION: GHS categories as the set defines them, by LD50: 1 up to 5, 2 up to 50, 3 up to 300, 4 up to 2000, 5 above 2000 mg/kg
# MEASUREMENT CONTEXT: rat; in vivo; po
# Source text: […]The data set underlying the modeling effort for this project was initially compiled by NICEATM and U.S. EPA’s CCTE. Briefly, LD50 data were collected from rat acute oral systemic toxicity tests, including limit tests, ranges/confidence intervals, and discrete LD50 values. The full data set included 21,200 LD50 entries for 15,688 substances. […]
Exercise: for every item that follows, state its recorded GHS category.
Enter the number alone.

Field request: GHS category | item: CCC(C(=O)NC(N)=O)c1ccccc1 (centres undefined)
5

Next up: CCCCCCCC/C=C\CCCCCCCC(=O)OC[C@H](O)[C@H]1OC[C@H](OC(=O)CCCCCCC/C=C\CCCCCCCC)[C@H]1OC(=O)CCCCCCC/C=C\CCCCCCCC
5

Next up: C#CCOc1ccc(CCNC(=O)C(OCC#C)c2ccc(Cl)cc2)cc1OC (centres undefined)
5

Next up: Cc1nc(N)sc1C(=O)NCc1ccccc1
4

Next up: NC(=O)Oc1ccccc1C(=O)Oc1ccc([N+](=O)[O-])cc1
5

Next up: CC[C@H]1CO[C@@](Cn2ccnc2)(c2cc3cc(Cl)cc(Cl)c3o2)O1
4

Next up: COc1ccc2[nH]cc(CCNC(C)=O)c2c1
5

Next up: CCN(CC)CCC(C#N)(CC=C(C)C)c1cccc2ccccc12 (centres undefined)
4

Next up: OC1CCC(CN2CCC(=C3c4ccc(F)cc4Sc4ccc(C(F)(F)F)cc43)CC2)CC1 (centres undefined)
3

Next up: CN1C(=CC=O)C(C)(C)c2ccccc21
3

Next up: COc1cc(OC)nc(NC(=O)NS(=O)(=O)Cc2ccccc2C(=O)O)n1
5

Next up: COC(=O)[C@]1(C)CCC[C@@]2(C)[C@H]1CC=C1C=C(C(C)C)CC[C@@H]12
5

Next up: O=C1CCc2c(cccc2OCCCN2CCC(O)(c3ccccc3)CC2)N1
4

Next up: CC(C)=CC/C(C)=C/COC(=O)c1ccccc1
5

Next up: O=C(O)[C@@H]1C[C@@H](C2CCCCC2)CN1
5

Next up: COc1n[nH]c(=O)n1C
5

Next up: CCOC(=O)C(=O)Nc1cc(OC)nc(-c2ccccc2)n1
4

Next up: CCCN(CCC)c1c([N+](=O)[O-])cc(C(C)C)cc1[N+](=O)[O-]
5

Next up: C=C(c1ccccc1)c1ccccc1
5

Next up: CC(=O)COc1nn(-c2cccc(C(F)(F)F)c2)c2ncccc12
4

Next up: CCOC(=O)C(=O)Nc1cc(OCCOC)nc(C)n1
4

Next up: CCOC(/C=C(\C)CCC=C(C)C)OCC
5

Next up: COC(=O)[C@H]1CCCO1
5

Next up: Cc1ccc(OP(=O)(Oc2ccc(C)cc2C)Oc2ccc(C)cc2C)c(C)c1
5

---

# MEASUREMENT DESCRIPTION: rat acute oral toxicity
# MEASUREMENT CONTEXT: in vivo
ATTRIBUTE MEASURED: LD50
Returns: string containing the numeric result and its unit.

Field request: LD50 | item: CC(=O)C(C)=O
1580 mg/kg

Next up: CCC(C)C(C)C(C)CCc1ccc(O)cc1 (configuration not stated)
2100 mg/kg

Next up: C#C[C@]1(O)CC[C@H]2[C@@H]3CCc4cc(O)ccc4[C@H]3CC[C@@]21C
960 mg/kg

Next up: O=C1C=CC(=O)O1
318 mg/kg

Next up: COC[C@H](C)N(C(=O)CCl)c1c(C)csc1C
371 mg/kg

Next up: COCCOCCOCCO
11300 mg/kg

Next up: CC(C)OC(=O)Nc1cccc(Cl)c1
1200 mg/kg

Next up: CCCCCC
25000 mg/kg

Next up: C[C@H]1OC(=O)[C@@H](C)OC1=O
3540 mg/kg

Next up: OCC#CCO
104 mg/kg

Next up: C1CNCCN1
1980 mg/kg

Next up: NC(N)=S
20 mg/kg

Next up: CNC(=S)S
615 mg/kg

Next up: O=C(Nc1ccc(Cl)c(Cl)c1)C1CC1
215 mg/kg

Next up: CC(C)c1ccccc1
1400 mg/kg

Next up: CNC(=O)ON=C(C)SC
14.7 mg/kg

Next up: OC(c1ccc(Cl)cc1)(c1ccc(Cl)cc1)C(Cl)(Cl)Cl
575 mg/kg
